For each of the compounds below, state its IC50.
# System: SW-620
# protocol_details: Reversal of resistance to paclitaxel-induced cytotoxicity in human SW-620/AD300 cells assessed as reduction in paclitaxel IC50 at 10 uM preincubated for 4 hrs followed by paclitaxel addition and measured after 72 hrs by MTT assay (reference value: 4.23 +/- 0.50 uM)
# Assay type: functional, cell-based
Use nM as the unit, but write only the number.

Prompt line: Looking for the measured IC50 of "CCCSc1nc2nc(C)cc(Nc3ccc(C(=O)/C=C/c4ccc5ccccc5c4)cc3)n2n1" , can you help?
Response line: 1070

Prompt line: Repeat with "Cc1cc(Nc2ccc(C(=O)/C=C/c3ccc4ccccc4c3)cc2)n2nc(SCc3ccc(C(F)(F)F)cc3)nc2n1"
Response line: 1450

Prompt line: Repeat with "C=CCSc1nc2nc(C)cc(Nc3ccc(C(=O)/C=C/c4ccc5ccccc5c4)cc3)n2n1"
Response line: 920

Prompt line: Repeat with "Cc1cc(Nc2ccc(C(=O)/C=C/c3ccc4ccccc4c3)cc2)n2ncnc2n1"
Response line: 730

Prompt line: Repeat with "O=C(/C=C/c1ccc2ccccc2c1)c1ccc(Nc2cc(-c3ccccc3)nc3ncnn23)cc1"
Response line: 790

* * *

For each of the molecules below, state its IC50.
# System: SW-620
# protocol_details: Reversal of resistance to paclitaxel-induced cytotoxicity in human SW-620/AD300 cells assessed as reduction in paclitaxel IC50 at 1 uM preincubated for 4 hrs followed by paclitaxel addition and measured after 72 hrs by MTT assay (reference value: 4.23 +/- 0.50 uM)
# Type: functional, cell-based
Use nM as the unit, but write only the number.

Prompt line: Looking for the measured IC50 of "Cc1cc(Nc2ccc(C(=O)/C=C/c3ccc(OC(F)(F)F)c(OC(F)(F)F)c3)cc2)n2nc(SCc3nc4ccccc4[nH]3)nc2n1" , can you help?
Response line: 120

Prompt line: Repeat with "Cc1cc(Nc2ccc(C(=O)/C=C/c3ccc(Br)cn3)cc2)n2nc(SCc3nc4ccccc4[nH]3)nc2n1"
Response line: 110

Prompt line: Repeat with "Cc1cc(Nc2ccc(C(=O)/C=C/c3cccc(Br)n3)cc2)n2nc(SCc3nc4ccccc4[nH]3)nc2n1"
Response line: 58

Prompt line: Repeat with "COc1cc(/C=C/C(=O)c2ccc(Nc3cc(C)nc4nc(SCc5nc6ccccc6[nH]5)nn34)cc2)cc(OC)c1OC"
Response line: 75

* * *

For each of the compounds below, state its fold change (FC).
# Tested on: SW-620
# protocol_details: Reversal of resistance to paclitaxel-induced cytotoxicity in human SW-620/AD300 cells assessed as reversal fold at 2 uM preincubated for 4 hrs followed by paclitaxel addition and measured after 72 hrs by MTT assay relative to paclitaxel
# Type: functional
# test_conditions: time 76 hrs

Prompt line: Looking for the measured fold change (FC) of "Cc1cc(Nc2ccc(C(=O)/C=C/c3cccs3)cc2)n2nc(SCc3nc4ccccc4[nH]3)nc2n1" , can you help?
Response line: 5.15

Prompt line: Repeat with "Cc1cc(Nc2ccc(C(=O)/C=C/c3ccc4ccccc4c3)cc2)n2nc(SCC(=O)c3ccccc3)nc2n1"
Response line: 22.26

Prompt line: Repeat with "Cc1cc(Nc2ccc(C(=O)/C=C/c3ccccc3)cc2)n2nc(SCc3nc4ccccc4[nH]3)nc2n1"
Response line: 32.54

Prompt line: Repeat with "Cc1cc(Nc2ccc(C(=O)/C=C/c3ccc(Cl)cc3)cc2)n2nc(SCc3nc4ccccc4[nH]3)nc2n1"
Response line: 18.39

Prompt line: Repeat with "Cc1cc(Nc2ccc(C(=O)/C=C/c3ccc4ccccc4c3)cc2)n2nc(SC(=O)c3csc4ccc(Cl)cc34)nc2n1"
Response line: 120.86

Prompt line: Repeat with "Cc1cc(Nc2ccc(C(=O)/C=C/c3ccc(C(F)(F)F)cc3)cc2)n2nc(SCc3nc4ccccc4[nH]3)nc2n1"
Response line: 2.29

Prompt line: Repeat with O[C@@H](COc1cccc2ncccc12)CN1CCN([C@@H]2c3ccccc3[C@@H]3[C@H](c4ccccc42)C3(F)F)CC1 [ZOSUQUIDAR]
Response line: 71.1

Prompt line: Repeat with "Cc1cc(Nc2ccc(C(=O)/C=C/c3ccc(Br)cc3)cc2)n2nc(SCc3nc4ccccc4[nH]3)nc2n1"
Response line: 14.59

Prompt line: Repeat with "Cc1cc(Nc2ccc(C(=O)/C=C/c3ccc(-n4cccn4)cc3)cc2)n2nc(SCc3nc4ccccc4[nH]3)nc2n1"
Response line: 12.44

Prompt line: Repeat with "Cc1cc(Nc2ccc(C(=O)/C=C/c3ccccc3Cl)cc2)n2nc(SCc3nc4ccccc4[nH]3)nc2n1"
Response line: 6.22

Prompt line: Repeat with "Cc1cc(Nc2ccc(C(=O)/C=C/c3ccc4ccccc4c3)cc2)n2nc(SCc3nc4ccccc4[nH]3)nc2n1"
Response line: 846

Prompt line: Repeat with "Cc1cc(Nc2ccc(C(=O)/C=C/c3ccc4ccccc4c3)cc2)n2nc(SCc3cccc4ccccc34)nc2n1"
Response line: 62.21

* * *

# Test system: SW-620
# protocol_details: Reversal of resistance to paclitaxel-induced cytotoxicity in human SW-620/AD300 cells assessed as reduction in paclitaxel IC50 at 1 uM preincubated for 4 hrs followed by paclitaxel addition and measured after 72 hrs by MTT assay (reference value: 4.23 +/- 0.50 uM)
# Assay type: functional, cell-based
observed_property: IC50

Prompt line: Looking for the measured IC50 of "Cc1cc(Nc2ccc(C(=O)/C=C/c3ccc4c(c3)OC(F)(F)O4)cc2)n2nc(SCc3nc4ccccc4[nH]3)nc2n1" , can you help?
Response line: 240 nM

Prompt line: Repeat with "COc1cc(OC)c(/C=C/C(=O)c2ccc(Nc3cc(C)nc4nc(SCc5nc6ccccc6[nH]5)nn34)cc2)c(OC)c1"
Response line: 260 nM

Prompt line: Repeat with "Cc1cc(Nc2ccc(C(=O)/C=C/c3ccc4ccccc4c3)cc2)n2nc(SCc3nc4ccccc4[nH]3)nc2n1"
Response line: 28.1 nM

* * *

# System: KB 3-1
# protocol_details: Reversal of resistance to paclitaxel-induced cytotoxicity in human KB 3-1 cells assessed as reduction in paclitaxel IC50 at 1 uM preincubated for 4 hrs followed by paclitaxel addition and measured after 72 hrs by MTT assay (reference value: 4.54 +/- 1.59 nM)
# Type: functional, cell-based
observed_property: pIC50
Just so you know, pIC50 here is -log10 of the concentration in molar units; reply with that number alone.

Prompt line: Looking for the measured pIC50 of "Cc1cc(Nc2ccc(C(=O)/C=C/c3ccc4ccccc4c3)cc2)n2nc(SCc3nc4ccccc4[nH]3)nc2n1" , can you help?
Response line: 8.39

* * *

# protocol_details: Volume of distribution at steady state in Sprague-Dawley rat at 10 mg/kg, iv measured up to 24 hrs by LC-MS/MS analysis
# Assay type: ADME, organism-based
# test_conditions: in vivo, read-out: Vdss
observed_property: Vd (L/kg)
Use L/kg as the unit, but write only the number.

Prompt line: Looking for the measured Vd of "Cc1cc(Nc2ccc(C(=O)/C=C/c3ccc4ccccc4c3)cc2)n2nc(SCc3nc4ccccc4[nH]3)nc2n1" , can you help?
Response line: 0.114

* * *

# protocol_details: AUClast in Sprague-Dawley rat at 10 mg/kg, iv measured up to 24 hrs by LC-MS/MS analysis
# Type: ADME, organism-based
# Parameters: dose 10 mg/kg, time < 24 hrs, route iv
# test_conditions: in vivo
observed_property: AUC(0-t) at 24 h (µg·h/mL)
Use µg·h/mL as the unit, but write only the number.

Prompt line: Looking for the measured AUC(0-t) at 24 h of "Cc1cc(Nc2ccc(C(=O)/C=C/c3ccc4ccccc4c3)cc2)n2nc(SCc3nc4ccccc4[nH]3)nc2n1" , can you help?
Response line: 9.44

* * *

# Tested on: HEK293
# protocol_details: Reversal of resistance to paclitaxel-induced cytotoxicity in human HEK293/ABCB1 cells assessed as reduction in paclitaxel IC50 at 2 uM preincubated for 4 hrs followed by paclitaxel addition and measured after 72 hrs by MTT assay (reference value: 91.40 +/- 23.32 nM)
# Type: functional, cell-based
observed_property: IC50 (nM)
Use nM as the unit, but write only the number.

Prompt line: Looking for the measured IC50 of "Cc1cc(Nc2ccc(C(=O)/C=C/c3ccc4ccccc4c3)cc2)n2nc(SCc3nc4ccccc4[nH]3)nc2n1" , can you help?
Response line: 3.68

* * *

# System: SW-620
# protocol_details: Reversal of resistance to paclitaxel-induced cytotoxicity in human SW-620/AD300 cells assessed as reversal fold at 2 uM preincubated for 4 hrs followed by paclitaxel addition and measured after 72 hrs by MTT assay relative to paclitaxel
# Type: functional
# test_conditions: time 76 hrs
observed_property: fold change (FC)
I only need the number, thanks.

Prompt line: Looking for the measured fold change (FC) of "Cc1ccc(/C=C/C(=O)c2ccc(Nc3cc(C)nc4nc(SCc5nc6ccccc6[nH]5)nn34)cc2)cc1" , can you help?
Response line: 2.78

Prompt line: Repeat with "Cc1cc(Nc2ccc(C(=O)/C=C/c3cccc(Cl)c3)cc2)n2nc(SCc3nc4ccccc4[nH]3)nc2n1"
Response line: 10.58

Prompt line: Repeat with "COc1ccc(/C=C/C(=O)c2ccc(Nc3cc(C)nc4nc(SCc5nc6ccccc6[nH]5)nn34)cc2)cc1F"
Response line: 30.21

Prompt line: Repeat with "Cc1cc(Nc2ccc(C(=O)/C=C/c3ccc(OC(F)(F)F)cc3)cc2)n2nc(SCc3nc4ccccc4[nH]3)nc2n1"
Response line: 19.5

Prompt line: Repeat with "Cc1cc(Nc2ccc(C(=O)/C=C/c3ccccc3F)cc2)n2nc(SCc3nc4ccccc4[nH]3)nc2n1"
Response line: 16.92

Prompt line: Repeat with "Cc1cc(Nc2ccc(C(=O)/C=C/c3ccc(F)cc3)cc2)n2nc(SCc3nc4ccccc4[nH]3)nc2n1"
Response line: 49.8

Prompt line: Repeat with "COc1ccc(/C=C/C(=O)c2ccc(Nc3cc(C)nc4nc(SCc5nc6ccccc6[nH]5)nn34)cc2)cc1"
Response line: 24.88

Prompt line: Repeat with "Cc1cc(Nc2ccc(C(=O)/C=C/c3cccc(F)c3)cc2)n2nc(SCc3nc4ccccc4[nH]3)nc2n1"
Response line: 7.17

Sourced from ChEMBL document CHEMBL5055665
